FYI, the data here is from ChEMBL document CHEMBL1133375.

# IC50 per entry for Prothrombin (Homo sapiens, UniProt P00734)
assay.readout: IC50 (µM)

N=C(N)c1ccc(CNC(=O)[C@@H]2CC[C@H]3CC[C@@](O)(Cc4ccccc4)C(=O)N32)cc1	0.02
NCc1ccc(CNC(=O)[C@@H]2CC[C@H]3[C@@H](OCc4ccccc4)CCC(=O)N23)cc1	12.6
CO[C@H]1C[C@@](O)(Cc2ccccc2)C(=O)N2[C@H](C(=O)NCc3ccc(C(=N)N)cc3)CC[C@@H]12	0.251
NCc1ccc(CNC(=O)[C@@H]2CC[C@H]3[C@@H](OCc4ccccc4)C[C@H](O)C(=O)N23)cc1	12.6
O=C(NCC1CCNCC1)[C@@H]1CC[C@H]2[C@@H](OCc3ccccc3)C[C@H](O)C(=O)N12	12.6
